# System under test: T1, human ROR1 (hROR1) on cells (human, UniProt Q01973 30-937)
# T1 construct: whole, on cells; the cell line is named under assay; also called HEK293T-hROR1; 293T-hROR1
# T1 sequence (Q01973 30-937): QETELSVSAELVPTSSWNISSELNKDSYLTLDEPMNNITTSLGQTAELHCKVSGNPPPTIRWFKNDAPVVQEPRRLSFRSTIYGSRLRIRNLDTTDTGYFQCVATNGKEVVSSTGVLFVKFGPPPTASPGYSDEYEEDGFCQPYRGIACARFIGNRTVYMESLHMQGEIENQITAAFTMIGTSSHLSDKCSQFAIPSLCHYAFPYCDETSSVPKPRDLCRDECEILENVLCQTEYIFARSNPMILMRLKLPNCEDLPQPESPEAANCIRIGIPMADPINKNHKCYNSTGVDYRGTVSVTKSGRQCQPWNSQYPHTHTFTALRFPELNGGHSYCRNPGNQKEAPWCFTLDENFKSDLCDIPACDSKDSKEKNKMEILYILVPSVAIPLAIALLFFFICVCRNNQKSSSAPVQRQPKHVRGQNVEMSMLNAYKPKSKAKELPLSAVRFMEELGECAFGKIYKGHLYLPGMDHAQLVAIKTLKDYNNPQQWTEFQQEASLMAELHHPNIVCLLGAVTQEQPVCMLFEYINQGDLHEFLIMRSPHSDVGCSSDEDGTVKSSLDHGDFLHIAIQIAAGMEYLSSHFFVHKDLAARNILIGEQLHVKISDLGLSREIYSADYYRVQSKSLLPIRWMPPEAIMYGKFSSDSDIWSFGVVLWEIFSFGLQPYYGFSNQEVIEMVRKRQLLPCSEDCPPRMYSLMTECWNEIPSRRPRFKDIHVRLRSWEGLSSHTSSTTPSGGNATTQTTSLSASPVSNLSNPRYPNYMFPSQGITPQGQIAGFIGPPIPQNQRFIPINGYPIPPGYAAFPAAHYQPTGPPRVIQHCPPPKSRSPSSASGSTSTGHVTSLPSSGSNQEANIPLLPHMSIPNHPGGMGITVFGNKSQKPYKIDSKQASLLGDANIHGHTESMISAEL
# Assay procedure: flow cytometry (FACS) on A549 cells (endogenous ROR1), antibody 0.01-100 nM, median fluorescence intensity
Value kind: EC50 (read off the curve)

Request: Need EC50 (read off the curve) of Positive control antibody (PR000374) (antibody, human IgG1, kappa, V domains shown) VH: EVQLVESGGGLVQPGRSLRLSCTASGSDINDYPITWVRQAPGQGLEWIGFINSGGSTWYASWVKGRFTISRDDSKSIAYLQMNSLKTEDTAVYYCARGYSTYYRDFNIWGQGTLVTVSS VL: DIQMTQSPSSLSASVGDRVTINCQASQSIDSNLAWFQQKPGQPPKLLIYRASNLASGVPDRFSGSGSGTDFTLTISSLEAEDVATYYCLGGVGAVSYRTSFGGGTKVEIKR , thanks.
Result: ~3 nM

Request: Param item: PR001418 (antibody, human IgG1, kappa, V domains shown, fully human IgG1, kappa) VH: QVQLVESGGGVVQPGRSLRLSCAASGFTFSSYGMHWVRQAPGKGLEWVAVIWYDGSDKDYADSVKGRFTISRDTSKNTLYLQMNSLRAEDTAVYYCAREQARSFDLWGRGTLVTVSS VL: DIVMTQSPSTLSASVGDRVTITCRASQTINNWLAWYQQKPGKAPKLLIYKASSLESGVPSRFSGSGSGTEFTLTISSLQPDDFATYYCQQYNSYSPMYTFGQGTKLEIKR
Result: ~0.4 nM

Request: Param item: PR001415 (antibody, human IgG1, kappa, V domains shown, fully human IgG1, kappa) VH: EVQLVESGGGVVQPGRSLRLSCAASGFTFSNSGMHWVRQAPGKGLEWVAIMWYDGSNKDYADSVKGRFTISRDTSKNTLYLQMNSLRAEDTAVYYCAREQARSFDLWGRGTLVTVSS VL: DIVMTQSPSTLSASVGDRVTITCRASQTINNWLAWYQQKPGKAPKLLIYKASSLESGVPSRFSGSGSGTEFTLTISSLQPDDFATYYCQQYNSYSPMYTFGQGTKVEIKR
Result: ~0.4 nM

Request: Param item: PR001417 (antibody, V domains shown, fully human IgG1, kappa) VH: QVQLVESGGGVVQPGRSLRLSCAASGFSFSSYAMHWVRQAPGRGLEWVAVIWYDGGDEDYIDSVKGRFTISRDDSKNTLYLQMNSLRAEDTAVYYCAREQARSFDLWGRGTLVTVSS VL: DVVMTQSPSTLSASVGDRVTITCRASQSINSWLAWYQQKPGKAPKLLIYKASSLESGVPSRFSGSGSGTEFTLTISSLQPDDFATYYCQQYNSYSPMYTFGQGTKVEIKR
Result: ~0.9 nM

Reference for the values: patent US20240010721A1
